As shown below, each of these compounds has a reported IC50 value.
Molecular target: full-length beta-Catenin (Uniprot ID P35222) (Homo sapiens)
Construct: 10 nM full-length beta-Catenin (Uniprot ID P35222)
Sequence (P35222 1-781): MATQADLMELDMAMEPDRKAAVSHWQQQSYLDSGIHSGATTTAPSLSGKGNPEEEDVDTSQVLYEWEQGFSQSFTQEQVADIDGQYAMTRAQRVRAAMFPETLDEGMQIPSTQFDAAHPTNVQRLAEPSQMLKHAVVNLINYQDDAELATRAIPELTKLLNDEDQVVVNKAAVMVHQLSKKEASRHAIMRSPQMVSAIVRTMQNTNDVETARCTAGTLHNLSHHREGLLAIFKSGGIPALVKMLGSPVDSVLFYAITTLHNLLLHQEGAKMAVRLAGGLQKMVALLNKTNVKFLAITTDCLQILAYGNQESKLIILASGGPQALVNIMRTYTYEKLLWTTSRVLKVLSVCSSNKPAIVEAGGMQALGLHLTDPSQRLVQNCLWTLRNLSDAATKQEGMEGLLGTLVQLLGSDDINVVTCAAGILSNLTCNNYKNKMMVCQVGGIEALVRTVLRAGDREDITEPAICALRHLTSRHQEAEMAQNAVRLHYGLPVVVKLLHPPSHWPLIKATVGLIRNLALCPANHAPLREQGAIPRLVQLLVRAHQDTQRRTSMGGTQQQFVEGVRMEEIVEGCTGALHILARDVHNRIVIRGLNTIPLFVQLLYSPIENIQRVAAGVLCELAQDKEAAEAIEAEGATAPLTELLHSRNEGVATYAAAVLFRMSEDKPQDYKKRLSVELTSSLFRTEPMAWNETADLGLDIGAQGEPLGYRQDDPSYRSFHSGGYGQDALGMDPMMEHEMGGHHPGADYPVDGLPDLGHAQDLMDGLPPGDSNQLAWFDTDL
Assay: Fluorescence polarization IC50 (beta-catenin / 5FAM-TCF4 10-53 competition)
Assay type: binding
Settings: read-out: FP EC50
# number only, unit nM dropped from output

Previously resolved entries follow.
- COMPOUND: "CC[C@H](C)[C@@H]1NC(=O)[C@H](CC(=O)O)NC(=O)[C@]2(CC=CCCCC3(CCCC=CCCCCCC[C@@](C)(C(=O)N[C@@H](Cc4ccccc4)C(=O)N[C@@H](Cc4csc5ccccc45)C(N)=O)NC(=O)[C@H](CC(N)=O)NC(=O)[C@H](Cc4ccccc4)NC(=O)[C@H](C)NC(=O)[C@H](C)NC(=O)[C@H](CCC(=O)O)NC(=O)[C@H](CC(=O)O)NC3=O)NC1=O)CCCN2C(C)=O (stereo partly drawn) [I-714]"
  IC50 [nM]: 131
- COMPOUND: "CC(=O)N1CCC[C@]12CC=CCCCC1(CCCC=CCCCCCC[C@@](C)(C(=O)N[C@@H](Cc3ccccc3)C(=O)N[C@@H](Cc3csc4ccccc34)C(=O)N(C)[C@@H](CO)C(N)=O)NC(=O)[C@H](CC(N)=O)NC(=O)[C@H](Cc3ccccc3)NC(=O)[C@H](C)NC(=O)[C@H](C)NC(=O)[C@H](CCC(=O)O)NC(=O)[C@H](CC(=O)O)NC1=O)NC(=O)[C@H](CC(C)C)NC(=O)[C@H](CC(=O)O)NC2=O (stereo partly drawn) [I-760]"
  IC50 [nM]: 608

Lab book: IC50 of CC(=O)N1CCC[C@]12CC=CCCCC1(CCCC=CCCCCCC[C@@](C)(C(=O)N[C@@H](Cc3ccccc3)C(=O)N[C@@H](Cc3csc4ccccc34)C(=O)N[C@@H](CC(N)=O)C(N)=O)NC(=O)[C@H](CC(N)=O)NC(=O)[C@H](Cc3ccccc3)NC(=O)[C@H](C)NC(=O)[C@H](C)NC(=O)[C@H](CCC(=O)O)NC(=O)[C@H](CC(=O)O)NC1=O)NC(=O)[C@H](CC(C)C)NC(=O)[C@H](CC(=O)O)NC2=O (stereo partly drawn) [I-752] noted as 16

These entries and their values trace back to patent US20240116985A1.
